Cited source: ChEMBL document CHEMBL3856288

test_summary: Cytotoxicity against human HepG2(2.2.15) cells assessed as reduction in cell viability by MTS assay
Assay type: toxicity, cell-based
attribute_measured: CC50

CC(C)OC(=O)[C@H](C)NP(=O)(CO[C@H]1CO[C@@H](n2ccc(N)nc2=O)C1)N[C@@H](C)C(=O)OC(C)C : > 100 µM
CC(C)OC(=O)[C@H](C)NP(=O)(CO[C@H]1CO[C@@H](n2cnc3c(=O)[nH]c(N)nc32)C1)Oc1ccccc1 (some centres undefined) : > 100 µM
Nc1ncnc2c1ncn2[C@@H]1OC[C@H](OCP(=O)(O)O)[C@H]1F : > 100 µM

Query :: Give me measured CC50, please, for this molecule: CC(C)CCOC(=O)C[C@H](NP(=O)(CO[C@H]1CO[C@@H](n2cnc3c(N)ncnc32)C1)Oc1ccccc1)C(=O)OCCC(C)C (some centres undefined)
Result :: 35.2 µM
